Test system: Rattus norvegicus
Assay: Narcotic antagonist activity in sc dosed rat assessed as inhibition of morphine-induced analgesic activity by tail flick test
Type: functional
Provide the recorded ED50 for the entries that follow.
Answers are plain numbers, in mg/kg.

CCC12CC3CC(c4ccc(O)cc41)C(C2)N3CC1CC1 (stereo unspecified)	0.44
C=CCN1C2CC3c4ccc(O)cc4C(CC)(C2)CC31 (stereo unspecified)	3.3
CCC12CC3CC(c4ccc(O)cc41)C(C2)N3CC1CCC1 (stereo unspecified)	10

# per-item lookup of ED50; items listed below
1. CC12CC3CC(c4ccc(O)cc41)C(C2)N3CC1CC1 (stereo unspecified)
2. C=CCN1CC[C@]23c4c5ccc(O)c4O[C@H]2[C@@H](O)C=C[C@H]3[C@H]1C5 [NALORPHINE]

1: 0.64; 2: 0.38
